measured_on: Cellular tumor antigen p53 (Homo sapiens) (UniProt P04637)
Sequence (P04637 whole entry, looked up): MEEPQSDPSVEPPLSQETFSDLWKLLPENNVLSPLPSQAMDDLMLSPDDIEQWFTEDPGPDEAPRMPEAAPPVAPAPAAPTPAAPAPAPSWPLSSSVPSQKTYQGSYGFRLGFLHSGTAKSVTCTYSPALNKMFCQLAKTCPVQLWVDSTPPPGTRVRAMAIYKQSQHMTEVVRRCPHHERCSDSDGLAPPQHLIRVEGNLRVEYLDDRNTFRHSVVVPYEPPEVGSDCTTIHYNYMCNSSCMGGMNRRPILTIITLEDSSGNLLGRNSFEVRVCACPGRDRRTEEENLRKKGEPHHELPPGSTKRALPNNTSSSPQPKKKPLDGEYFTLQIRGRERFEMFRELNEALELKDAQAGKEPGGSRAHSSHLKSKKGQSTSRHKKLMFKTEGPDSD
assay_name: TOX21_p53_BLA_p3_ratio: Tox21 HCT-116 p53 Agonism Beta-lactamase Assay, Ratio, Phase 3 (AID 2283596)
Results filed as inconclusive are left out. Active and inactive are the calls of the source. Rule for the calls: active = hit-call score of the fitted dose curve at least 0.9, where 1 is the maximum; inconclusive = response in the unintended direction; inactive = score below 0.9.
# output must be one of active, inactive

O=C1CCCN1CCO :: inactive
CC(=O)Nc1nnc(S(N)(=O)=O)s1 :: inactive
[Cl][In]([Cl])[Cl] :: inactive
CC1(C)S[C@@H]2[C@H](NC(=O)COc3ccccc3)C(=O)N2[C@H]1C(=O)O :: inactive
O=C(OCC1CCC2OC2C1)C1CCC2OC2C1 (centres undefined) :: inactive

Next molecule, please.
What classification did `CC(=O)OC(C)C` end up with in this test?
inactive

* * *

assay_name: ATG_SREBP_CIS: Attagene CIS-FACTORIAL HepG2 Assay for human Sterol Regulatory Element Binding (SREBP) (AID 2282962)
cond: HepG2 Attagene cis-factorial SREBP reporter, mRNA; actives raise or lower the signal
Protocol: ATG_CIS is a cell-based, multiplexed-readout assay that uses HepG2, a human liver cell line, with measurements taken at 24 hours after chemical dosing in a 24-well plate.ATG_SREBP_CIS is one of 52 assay component(s) measured or calculated from the ATG_CIS assay. […] This assay endpoint, ATG_SREBP_CIS, was analyzed with bidirectional fitting relative to DMSO as the negative control and baseline of activity. […]
Active and inactive are the calls of the source. Rule for the calls: active = hit-call score of the fitted dose curve at least 0.9, where 1 is the maximum; inactive = score below 0.9.
Your response should consist of one outcome taken from 1 (yes) for active, 0 (no) for inactive

CC(C)(C)c1ccc(N)cc1 :: 0 (no)
CC(=O)[C@@]1(O)CC[C@H]2[C@@H]3C[C@H](C)C4=CC(=O)C=C[C@]4(C)[C@@]3(F)[C@@H](O)C[C@@]21C :: 0 (no)
O=C(O)Cc1c(Cl)ccc(Cl)c1Cl :: 0 (no)
Cn1c([N+](=O)[O-])cnc1COC(N)=O :: 0 (no)

Fill in: this test's call for `CCCCCCCCCCOS(=O)(=O)O` is ___
0 (no)

Recorded test outcome, item `C=C[Si](OC(C)=O)(OC(C)=O)OC(C)=O`
0 (no)

Dear all, I need the recorded test outcome for `CCOC(=O)NNc1nncc2ccccc12` , thank you.
0 (no)

Could you check what this test reported for `CC=CC(=O)N(CC)c1ccccc1C` ?
0 (no)

// return assay outcome for CCCCCCC(O)CO (stereo not given)
0 (no)

// outcome(item) with item = CC(C)(C)C1CCCCC1=O (stereo not given)
0 (no)

Record lookup: outcome of this test for `Nc1cccc(C(F)(F)F)c1` ?
0 (no)

Write down the call the test reported for this compound. Item: `CC/C=C\C/C=C\C/C=C\CCCCCCCC(=O)O`
0 (no)

Answer briefly: the call reported for `C=CC=CC=CCCCCC` in this assay.
0 (no)

Outcome? `O=C(/C=C/C=C/c1ccc2c(c1)OCO2)N1CCCCC1`
0 (no)

* * *

measured_on: Peroxisome proliferator-activated receptor gamma (Homo sapiens) (UniProt P37231)
Sequence (P37231 whole entry, looked up): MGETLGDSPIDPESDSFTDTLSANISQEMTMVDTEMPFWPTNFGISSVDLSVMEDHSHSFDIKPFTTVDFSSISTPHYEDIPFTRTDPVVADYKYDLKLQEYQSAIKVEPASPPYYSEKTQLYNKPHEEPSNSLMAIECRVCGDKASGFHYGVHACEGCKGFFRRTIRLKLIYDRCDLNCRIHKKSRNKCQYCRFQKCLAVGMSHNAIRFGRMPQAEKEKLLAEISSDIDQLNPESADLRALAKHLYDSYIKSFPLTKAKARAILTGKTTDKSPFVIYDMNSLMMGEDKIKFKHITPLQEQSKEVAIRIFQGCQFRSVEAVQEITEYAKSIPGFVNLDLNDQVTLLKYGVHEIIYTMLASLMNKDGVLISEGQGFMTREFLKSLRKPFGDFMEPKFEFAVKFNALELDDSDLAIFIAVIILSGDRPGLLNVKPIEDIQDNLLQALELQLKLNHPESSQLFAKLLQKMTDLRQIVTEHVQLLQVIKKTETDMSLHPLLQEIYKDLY
assay_name: ATG_PPARg_TRANS: Attagene TRANS-FACTORIAL HepG2 Assay for human Peroxisome Proliferator-activated Receptor-gamma (PPARg) (AID 2283007)
Records with an inconclusive call do not appear. Calls of active or inactive are those of the source. The calls were made as follows: active = hit-call score of the fitted dose curve at least 0.9, where 1 is the maximum; inconclusive = response in the unintended direction; inactive = score below 0.9.
Valid outcomes are listed here; reply with one: active, inactive

C[Si](C)O[Si](C)(C)O[Si](C)(C)O[Si](C)C :: inactive
OC1CCCCCCCCCCC1 :: inactive
CO[Si](CCC1CCC2OC2C1)(OC)OC (stereo not drawn) :: inactive

Test call, this compound: `CCCCCCCC[N+](C)(CCCCCCCC)CCCCCCCC`
inactive

Record lookup: outcome of this test for `CC(=O)c1ccc[nH]1` ?
inactive

// outcome(item) with item = `O=C(c1ccc(O)cc1)c1ccc(O)cc1O`
active

Which outcome was entered for the compound `O=C(Nc1cccc(C(F)(F)F)c1)c1cc(Br)cc(Br)c1O` in this test?
active

Please state the recorded outcome for this compound: `Nc1ccc(Oc2ccc(N)c(N)c2)cc1`
active

* * *

measured_on: X-box-binding protein 1 (Homo sapiens)
assay_name: ATG_Xbp1_CIS: Attagene CIS-FACTORIAL HepG2 Assay for human X-box Binding Protein 1 (XBP1) (AID 2282972)
cond: HepG2 XBP1 cis-element reporter, Attagene multiplex; actives raise or lower the signal
Calls of active or inactive are those of the source. How the source made its calls: active means hit-call score of the fitted dose curve at least 0.9, where 1 is the maximum; inactive means score below 0.9.
Respond with a class label; see active, inactive

O=C(c1ccccc1)c1ccc(O)c(O)c1O :: inactive
[Cl][In]([Cl])[Cl] :: inactive

// return assay outcome for `COc1ccc2nc(N)sc2c1`
inactive

Each molecule tested received a call. Report the one for `Nc1ccc(N=Nc2ccccc2)c(N)n1` .
active

How was OC1OCCOC1O (centres undefined) classified in this test?
inactive

Identify the outcome logged in this assay for the molecule shown: `O=C(O)CCCCCCCCCC(=O)O`
inactive

# fetch the recorded call for `O=CN1CCCCC1` here
inactive

For `C=C(C)CCO` , what call appears in the results of this test?
inactive

Just curious, what result did `Cn1c(=O)[nH]c2ncn(C)c2c1=O` get here?
inactive

* * *

assay_name: ACEA_ER_AUC_viability: ACEA Biosciences xCELLigence Real-Time Cell Analysis on Estrogen Receptor Agonism for Viability (AID 2283782);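 note: continuous compound exposure with impedance area under curve over 80 h; hit means loss of impedance signal meaning reduced cell growth or viability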
Inconclusive results are not listed. Active and inactive are the calls of the source. How the source made its calls: active means hit-call score of the fitted dose curve at least 0.9, where 1 is the maximum; inconclusive means response in the unintended direction; inactive means score below 0.9.
Choose the fitting class; nothing outside active, inactive is accepted.

CC1(C)[C@H]2CC[C@]1(C)C(=O)C2 :: inactive
CC(=O)C=CC1C(C)=CCC(C)C1(C)C (stereo not drawn) :: inactive
CCCCCCCCCCCCCCCC[N+](C)(C)CC :: active
O=c1n(CCO)c(=O)n(CCO)c(=O)n1CCO :: inactive
NC(=O)N=NC(N)=O :: inactive
C=CCCCCCCCCC(=O)OCCCC :: active
Nc1ccc(N)c(Cl)c1 :: active

Next item in the queue.
Per the records of this test, what outcome belongs to C=CCOCC(O)CCl (stereo not drawn) ?
inactive

* * *

measured_on: human Retinoid X Receptor beta (RXRb), RXRB (gene 6257)
assay_name: ATG_RXRb_TRANS: Attagene TRANS-FACTORIAL HepG2 Assay for human Retinoid X Receptor beta (RXRb) (AID 2283013)
Results filed as inconclusive are left out. Activity calls are given as the source filed them. Rule for the calls: active = hit-call score of the fitted dose curve at least 0.9, where 1 is the maximum; inconclusive = response in the unintended direction; inactive = score below 0.9.
Respond only with the outcome that fits, drawn from 1 (active), 0 (inactive)

The examples below pair each entry with its known result.
CC1(C)O[C@@H]2C[C@H]3[C@@H]4C[C@H](F)C5=CC(=O)CC[C@]5(C)[C@H]4[C@@H](O)C[C@]3(C)[C@]2(C(=O)CO)O1 :: 1
CCC(C)OC(=O)c1ccc(O)cc1 (configuration not stated) :: 1

Please state the recorded outcome for this compound: `OC1CCCCCCCCCCC1`
1

Hi team, can someone confirm the assay call for `CCCCCCCCCCOS(=O)(=O)O` ?
0

Outcome? O=C1C(N(CO)C(=O)NCO)N(CO)C(=O)N1CO (configuration not stated)
0

Fill in: this test's call for `Cn1c(=O)[nH]c2ncn(C)c2c1=O` is ___
0

Which result was noted for this compound in the test: `C(=CC=Nc1ccccc1)C=CNc1ccccc1`
0

How was `CC(=O)NS(=O)(=O)c1ccc(N)cc1` classified in this test?
0

Please indicate how the test categorized `O=C1CCCCCN1SSN1CCCCCC1=O` .
0

# lookup: test call for `CC(C)(C)c1ccc(OC(=O)c2ccccc2O)cc1`
1

Dear colleague, could you share the recorded outcome for `O=S1(=O)OC(c2ccc(O)cc2)(c2ccc(O)cc2)c2ccccc21` when you have a moment?
0

Recorded test call requested for `FC(F)=C(F)OC(F)(F)C(F)(F)C(F)(F)F`
0

* * *

assay_name: ATG_TA_CIS: Attagene CIS-FACTORIAL HepG2 Assay for human TA Basal Promoter (AID 2282964)
cond: HepG2 Attagene CIS-factorial TA basal promoter reporter; actives raise or lower the signal
Activity calls are given as the source filed them. Rule for the calls: active = hit-call score of the fitted dose curve at least 0.9, where 1 is the maximum; inactive = score below 0.9.
The reply should name one outcome from label 1 (active), label 0 (inactive)

Here's what some known entries look like.
C=C(C)c1cccc(C(C)(C)N=C=O)c1 :: label 0
COC(=O)/C=C/C(C)=C\C=C\C(C)=C\C=C\C=C(C)\C=C\C=C(C)\C=C\C(=O)O :: label 0
O=[N+]([O-])C1(Br)COCOC1 :: label 0
COc1ccc(-c2coc3cc(O)ccc3c2=O)cc1 :: label 0
C#CC1(O)CC[C@H]2[C@@H]3CCC4=CCCC[C@@H]4[C@H]3CC[C@@]21C (stereo partly drawn) :: label 1

// return assay outcome for `CCOC(=O)N1CCC(=C2c3ccc(Cl)cc3CCc3cccnc32)CC1`
label 1

Tell me the recorded outcome of this test for `CCN(CCO)c1cccc(C)c1` .
label 0

Record request — test call for `CCCCCCCCCCCCCCCCCC#N`
label 0

// return assay outcome for `O=C(C(Cl)Cl)N1CCOC12CCCCC2`
label 1

Record lookup: outcome of this test for `O=P(O)(O)Oc1ccccc1` ?
label 0

// return assay outcome for `N#CCc1ccc(Cl)cc1Cl`
label 0

Tell me the assay call for `NC(=O)OCC(COC(N)=O)c1ccccc1` please.
label 0

What was the test verdict on CCC(C)(C)C1CCCCC1OC(C)=O (stereo not drawn) ?
label 0
